SUBJECT OF TEST: Basic phospholipase A2 VRV-PL-VIIIa (Daboia russelii)
Sequence (P59071 whole entry): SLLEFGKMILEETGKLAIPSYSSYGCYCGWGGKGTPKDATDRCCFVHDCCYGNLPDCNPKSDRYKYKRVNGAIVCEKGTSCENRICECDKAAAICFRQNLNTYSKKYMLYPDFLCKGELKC
Cut-off 30 µM on IC50: below means T, at or above means F.

1) COc1cc(C2CC(c3ccco3)=Nc3ccccc3S2)ccc1O (stereo not drawn); F
2) Clc1ccc(C2CC(c3ccco3)=Nc3ccccc3S2)cc1 (stereo not drawn); T
3) COc1ccc(C2CC(c3ccco3)=Nc3ccccc3S2)cc1 (stereo not drawn); T
4) c1coc(C2=Nc3ccccc3SC(c3ccc4c(c3)OCO4)C2)c1 (stereo not drawn); T
5) c1ccc(C2CC(c3ccco3)=Nc3ccccc3S2)cc1 (stereo not drawn); T
6) Fc1ccc(C2CC(c3ccco3)=Nc3ccccc3S2)cc1 (stereo not drawn); T
7) O=[N+]([O-])c1ccc(C2CC(c3ccco3)=Nc3ccccc3S2)cc1 (stereo not drawn); F
8) Brc1ccc(C2CC(c3ccco3)=Nc3ccccc3S2)cc1 (stereo not drawn); T
